Origin of values: patent US20180134769A1

# kon annotations
SUBJECT OF TEST: T1, Clostridium difficile toxin A (TcdA) (Clostridium difficile strain 10463, UniProt P16154 1-2710)
T1 construct: range 1-2710
MEASUREMENT NOTES: SPR (BIACORE 3000); TcdA immobilized on CM5 chip, monomeric VHH injected
Only the number, expressed in M⁻¹ s⁻¹, is required.

Quick one: kon of A24.1 (VHH, also called anti-TcdA VHH A24.1) VHH: QVQLVESGGGLVQAGGSLRLSCAASIRSFSNRNMGWFRQPPGKEREFVAGISWGGGSTRYADSVKGRFTISRDNAKKTVYLQMNSLKPEDTAVYYCAAEFGHNIATSSDEYDYWGQGTQVTVSS ? 60000

Now the binder A20.1 (VHH, also called anti-TcdA VHH A20.1) VHH: QVQLVESGGGLAQAGGSLRLSCAASGRTFSMDPMAWFRQPPGKEREFVAAGSSTGRTTYYADSVKGRFTISRDNAKNTVYLQMNSLKPEDTAVYYCAAAPYGANWYRDEYAYWGQGTQVTVSS 820000

Now the binder A19.2 (VHH, also called anti-TcdA VHH A19.2) VHH: QVKLEESGGGLVQPGGSLRLSCAASGRTLSSYIVAWFRQAPGKEREFVAGISRRGGNSAYVESVKGRFTISRDNAKNTVYLQMNSLKPEDTAVYYCAADGSVAGWGRRSVSVSSYDYWGQGTQVTVSS 14000

Now the binder A5.1 (VHH, also called anti-TcdA VHH A5.1) VHH: QVKLEESGGGLVQAGGSLRLSCAASGRTFSMYRMGWFRQAPGKEREFVGVITRNGSSTYYADSVKGRFTISRDNAKNTVYLQMNSLKPEDTALYYCAATSGSSYLDAAHVYDYWGQGTQVTVSS 1.6e+06
